- Tgt: TYK2 (Homo sapiens)
- Construct: Degradation of TYK2 in cells was quantitatively measured using Meso Scale Discovery (MSD) technology; endogenous in cells; host or cells: OCI-LY10
- Sequence (P29597 whole entry): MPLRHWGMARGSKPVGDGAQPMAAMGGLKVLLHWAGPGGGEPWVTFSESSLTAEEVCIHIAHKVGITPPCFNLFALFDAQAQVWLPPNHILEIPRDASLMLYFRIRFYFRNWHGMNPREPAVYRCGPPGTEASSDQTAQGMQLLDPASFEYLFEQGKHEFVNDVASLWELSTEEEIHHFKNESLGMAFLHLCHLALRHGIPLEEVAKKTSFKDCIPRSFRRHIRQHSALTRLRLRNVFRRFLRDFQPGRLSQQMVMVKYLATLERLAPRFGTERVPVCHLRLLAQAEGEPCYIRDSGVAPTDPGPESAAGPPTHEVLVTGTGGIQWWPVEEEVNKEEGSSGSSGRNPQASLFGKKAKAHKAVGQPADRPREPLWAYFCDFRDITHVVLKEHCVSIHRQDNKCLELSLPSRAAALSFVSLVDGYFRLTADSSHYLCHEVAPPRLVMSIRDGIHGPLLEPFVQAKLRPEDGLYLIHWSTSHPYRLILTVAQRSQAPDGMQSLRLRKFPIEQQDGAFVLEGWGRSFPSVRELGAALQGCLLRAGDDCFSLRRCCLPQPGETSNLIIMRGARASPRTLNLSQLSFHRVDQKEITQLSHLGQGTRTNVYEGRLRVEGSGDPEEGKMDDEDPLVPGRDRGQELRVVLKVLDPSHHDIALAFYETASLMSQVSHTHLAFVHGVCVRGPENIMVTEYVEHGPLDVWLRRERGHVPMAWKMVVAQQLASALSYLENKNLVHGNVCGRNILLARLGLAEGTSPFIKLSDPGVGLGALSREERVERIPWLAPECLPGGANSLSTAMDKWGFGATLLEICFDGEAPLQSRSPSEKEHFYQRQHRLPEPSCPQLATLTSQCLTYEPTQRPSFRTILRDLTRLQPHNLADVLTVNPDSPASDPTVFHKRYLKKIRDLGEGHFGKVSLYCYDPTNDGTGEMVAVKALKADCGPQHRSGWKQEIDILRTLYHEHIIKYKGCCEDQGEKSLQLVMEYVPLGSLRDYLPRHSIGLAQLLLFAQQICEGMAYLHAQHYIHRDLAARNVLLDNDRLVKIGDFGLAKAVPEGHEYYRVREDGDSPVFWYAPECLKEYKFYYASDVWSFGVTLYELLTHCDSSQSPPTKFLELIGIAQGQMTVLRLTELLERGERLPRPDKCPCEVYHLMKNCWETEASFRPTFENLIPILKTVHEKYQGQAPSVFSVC
- Assay Comment: TYK2 MSD degradation in OCI-LY10 cells
- Type: cell-based
- Protocol Conditions: TYK2 degradation in OCI-LY10 cells, 4 to 24 hours incubation
Value Kind: TYK2 MSD OCI-LY10 Dmax %

{"Molecule": "CNc1cc(N2CCc3c(-c4ccc(CN5CCC6(CCN(C(=O)c7ccc(Cl)c(N8CCC(=O)NC8=O)c7)CC6)C(F)(F)C5)cn4)cccc32)nn2c(C(=O)NC3CC3)cnc12 [I-57]", "Experimental Value": "B (B (90 to >75%))"}
{"Molecule": "CNc1cc(N2CCc3c(-c4ccc(CN5CCN(C6CCN(C(=O)c7cc(C)c(Cl)c(N8CCC(=O)NC8=O)c7)CC6(F)F)CC5)cn4)cccc32)nn2c(C(=O)N[C@@H]3CC[C@H]3OC)cnc12 (some centres unmarked) [I-1161]", "Experimental Value": "B (B (90 to >75%))"}
{"Molecule": "CNc1cc(N2CCc3c(-c4ccc(CN5CCC6(CCN(C(=O)c7ccc(Cl)c(N8CCC(=O)NC8=O)c7)C6)C(F)(F)C5)cn4)cccc32)nn2c(C(=O)N[C@@H]3C[C@@H]3F)cnc12 (some centres unmarked) [I-1082]", "Experimental Value": "B (B (90 to >75%))"}
{"Molecule": "CNc1cc(N2CCc3c(-c4ccc(CN5CC6(CCN(C(=O)c7cnc(C)c(N8CCC(=O)NC8=O)c7)CC6)C5)cn4)cccc32)nn2c(C(=O)N[C@@H]3C[C@@H]3F)cnc12 [I-351]", "Experimental Value": "B (B (90 to >75%))"}
{"Molecule": "CNc1cc(N2CCc3c(-c4ccc(CN5CCN(Cc6ccc(NC7CCC(=O)NC7=O)c(Cl)c6)CC5)cn4)cccc32)nn2c(C(=O)N[C@@H]3C[C@@H]3F)cnc12 (some centres unmarked) [I-389]", "Experimental Value": "C (C (75 to 50%))"}
{"Molecule": "CNc1cc(N2CCc3c(CN4CCC(CN5CCN(C(=O)c6ccc(Cl)c(N7CCC(=O)NC7=O)c6)CC5)CC4)cccc32)nn2c(C(=O)N[C@@H]3C[C@@H]3F)cnc12 [I-891]", "Experimental Value": "D (D (<50%))"}
{"Molecule": "CNc1cc(N2CCc3c(-c4ccc(CN5CCC6(CCN(C(=O)c7ccc(Cl)c(N8CCC(=O)NC8=O)c7)CC6)C(F)(F)C5)cn4)cccc32)nn2c(C(=O)NC34CC(C3)C4)cnc12 [I-851]", "Experimental Value": "C (C (75 to 50%))"}
{"Molecule": "CNc1cc(N2CCc3c(-c4ccc(CN5CCC6(CCC(N(C)c7ccc(Cl)c(N8CCC(=O)NC8=O)c7)CC6)CC5)cn4)cccc32)nn2c(C(=O)N[C@@H]3CC[C@H]3OC)cnc12 [I-1009]", "Experimental Value": "B (B (90 to >75%))"}
{"Molecule": "CNc1cc(N2CCc3c(-c4ccc(CN5CCC6(CC5)CCN(C(=O)c5ccc(Cl)c(N7CCC(=O)NC7=O)c5)C6)cn4)cccc32)nn2c(C(=O)N[C@H]3C[C@H]3F)cnc12 [I-82]", "Experimental Value": "B (B (90 to >75%))"}
{"Molecule": "CNc1cc(N2CCc3c(-c4cc(CN5CCC6(CC5)CN(c5ccc7c(c5)n(C)c(=O)n7C5CCC(=O)NC5=O)C6)ccn4)cccc32)nn2c(C(=O)NC3CC3)cnc12 (centres unmarked) [I-21]", "Experimental Value": "D (D (<50%))"}
